- Tested on: 855422-203-R-J1-PDC spheroids with HUVEC/MSC, viability
- Test: Anticancer human tumor 855422-203-R-J1-PDC patient-derived bladder carcinoma cell line growth inhibition [PI3K]
- Condition set: second compound 10 µM; first compound 0.0316 µM; hits give low values
Measurement name: viability, T/C (%)
Reply numerically in %, unit not repeated.

// query GET /values?readout=viability, T/C&system=855422-203-R-J1-PDC spheroids with HUVEC/MSC, viability&item= CCN1CCN(Cc2ccc(Nc3ncc(F)c(-c4cc(F)c5nc(C)n(C(C)C)c5c4)n3)nc2)CC1 + Cc1nc(NC(=O)N2CCCC2C(N)=O)sc1-c1ccnc(C(C)(C)C(F)(F)F)c1
// result 13.6

// query Also need CC(Cn1ccc(-c2ccc(C#N)c(Cl)c2)n1)NC(=O)c1cc(C(C)O)[nH]n1 (stereo not drawn) + Cc1nc(NC(=O)N2CCCC2C(N)=O)sc1-c1ccnc(C(C)(C)C(F)(F)F)c1 , thanks.
// result 24.4

// query Also need Cn1nccc1Nc1nccc(-c2ccn(C(CO)c3ccc(Cl)c(F)c3)c(=O)c2)n1 (stereo not drawn) + CC(Nc1ncnc2nc[nH]c12)c1cc2cccc(Cl)c2c(=O)n1-c1ccccc1 , thanks.
// result 88.5

* * *

- Test system: 855422-203-R-J1-PDC spheroids with HUVEC/MSC, viability
- Test: Anticancer human tumor 855422-203-R-J1-PDC cell line growth inhibition [PI3K];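 also: agents incubated with spheroids for one week before read-out; 100% = DMSO vehicle-treated control wells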
- Condition set: second compound 1 µM; first compound 0.1 µM; hits give low values
Lab note: anything with viability, T/C below 30% is marked true; values at 30% or higher are marked false.

Some solved cases for reference:
Compound	Classification
CC1(C)CCC(CN2CCN(c3ccc(C(=O)NS(=O)(=O)c4ccc(NCC5CCOCC5)c([N+](=O)[O-])c4)c(Oc4cnc5[nH]ccc5c4)c3)CC2)=C(c2ccc(Cl)cc2)C1 + COc1c(OCCCN2CCOCC2)ccc2c3n(c(=NC(=O)c4cnc(N)nc4)nc12)CCN3	true
CC(C)NCC(C(=O)N1CCN(c2ncnc3c2C(C)CC3O)CC1)c1ccc(Cl)cc1 (stereo unspecified) + CC(Nc1ccc2c(c1)OCCn1cc(N3C(=O)OCC3C(F)F)nc1-2)C(N)=O	false
CCN1CCN(Cc2ccc(Nc3ncc(F)c(-c4cc(F)c5nc(C)n(C(C)C)c5c4)n3)nc2)CC1 + COc1c(OCCCN2CCOCC2)ccc2c3n(c(=NC(=O)c4cnc(N)nc4)nc12)CCN3	true
CC(=O)c1c(C)c2cnc(Nc3ccc(N4CCNCC4)cn3)nc2n(C2CCCC2)c1=O + CC(Nc1ccc2c(c1)OCCn1cc(N3C(=O)OCC3C(F)F)nc1-2)C(N)=O	true
C#Cc1c(F)ccc2cc(O)cc(-c3ncc4c(N5CC6CCC(C5)N6)nc(OCC56CCCN5CC(F)C6)nc4c3F)c12 (stereo unspecified) + CC(Nc1ncnc2nc[nH]c12)c1cc2cccc(Cl)c2c(=O)n1-c1ccccc1	false

// query Here's an entry: Cn1ncnc1[C@H]1c2n[nH]c(=O)c3cc(F)cc(c23)N[C@@H]1c1ccc(F)cc1 + CC(Nc1ncnc2nc[nH]c12)c1cc2cccc(Cl)c2c(=O)n1-c1ccccc1 . Is its viability, T/C below 30%?
// result false

* * *

- Test system: 855422-203-R-J1-PDC spheroids with HUVEC/MSC, viability
- Test: Anticancer human tumor 855422-203-R-J1-PDC cell line growth inhibition [PI3K];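 also: agents incubated with spheroids for one week before read-out; 100% = DMSO vehicle-treated control wells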
- Condition set: second compound 0.316 µM; first compound 0.316 µM; hits give low values
Lab note: anything with viability, T/C below 90% is marked 1; values at 90% or higher are marked -1.

Molecule	Classification
CC1(C)CCC(CN2CCN(c3ccc(C(=O)NS(=O)(=O)c4ccc(NCC5CCOCC5)c([N+](=O)[O-])c4)c(Oc4cnc5[nH]ccc5c4)c3)CC2)=C(c2ccc(Cl)cc2)C1 + Cc1nc(NC(=O)N2CCCC2C(N)=O)sc1-c1ccnc(C(C)(C)C(F)(F)F)c1	-1

// query Here's an entry: CCCS(=O)(=O)Nc1ccc(F)c(C(=O)c2c[nH]c3ncc(-c4ccc(Cl)cc4)cc23)c1F + COc1c(OCCCN2CCOCC2)ccc2c3n(c(=NC(=O)c4cnc(N)nc4)nc12)CCN3 . Is its viability, T/C below 90%?
// result 1

// query Also need CC(Cn1ccc(-c2ccc(C#N)c(Cl)c2)n1)NC(=O)c1cc(C(C)O)[nH]n1 (stereo not given) + Cc1nc(NC(=O)N2CCCC2C(N)=O)sc1-c1ccnc(C(C)(C)C(F)(F)F)c1 , thanks.
// result -1

// query Also need C[C@@H](NC(=O)c1ncnc(N)c1Cl)c1ncc(C(=O)Nc2cc(C(F)(F)F)c(Cl)cn2)s1 + CC(Nc1ncnc2nc[nH]c12)c1cc2cccc(Cl)c2c(=O)n1-c1ccccc1 , thanks.
// result -1

// query Also need C=CC(=O)N1CCN(c2nc(=O)n(-c3c(C)ccnc3C(C)C)c3nc(-c4c(O)cccc4F)c(F)cc23)C(C)C1 (stereo not given) + CC(Nc1ccc2c(c1)OCCn1cc(N3C(=O)OCC3C(F)F)nc1-2)C(N)=O , thanks.
// result 1
